Reported logβ013 overall protonation constant values for the following molecules.
assay.notes: Spectrophotometric pH titrations of ligands (protonation constants, pKa)
Format: physicochemical
settings: 298 K, HypSpec, spectrophotometric data

molecule | recorded.endpoint | measurement
O=C(/C=C/c1ccc(O)cc1)C(CCCN1C(=O)c2ccccc2C1=O)C(=O)/C=C/c1ccc(O)cc1 [Compound 3] | logβ013 overall protonation constant | 28.84 (4)

**Q:** Given the molecule O=C(O)CCC(C(=O)/C=C/c1ccc(O)cc1)C(=O)/C=C/c1ccc(O)cc1 [Compound 6] , what is its reported logβ013 overall protonation constant?
**A:** 29.76 (7)

**Q:** Given the molecule COc1cc(/C=C/C(=O)C(CCCN2C(=O)c3ccccc3C2=O)C(=O)/C=C/c2ccc(O)c(OC)c2)ccc1O [Compound 4] , what is its reported logβ013 overall protonation constant?
**A:** 29.44 (6)

**Q:** Given the molecule COc1cc(/C=C/C(=O)C(CCC(=O)O)C(=O)/C=C/c2ccc(O)c(OC)c2)ccc1O [Compound 7] , what is its reported logβ013 overall protonation constant?
**A:** 29.98 (4)

====

assay.notes: Keto-enol/diketo tautomer amounts by 1H NMR
Assay type: physicochemical
settings: molar percentage, MeOD-d4, 298 K
recorded.endpoint: KK (%) amount of diketo form
Give the value in % but do not write % after it.

smi | unit.abbrev | KK (%) amount of diketo form
COc1cc(/C=C/C(O)=C/C(C)=O)ccc1OCCCBr | % | 12
O=C(/C=C/c1ccc(O)cc1)C(CCCN1C(=O)c2ccccc2C1=O)C(=O)/C=C/c1ccc(O)cc1 | % | 55
COc1cc(/C=C/C(=O)C(CCC(=O)O)C(=O)/C=C/c2ccc(O)c(OC)c2)ccc1O | % | 75
O=C(O)CCC(C(=O)/C=C/c1ccc(O)cc1)C(=O)/C=C/c1ccc(O)cc1 | % | 75

From here, focus on the item given below.
**Q:** Given the molecule "COc1cc(/C=C/C(=O)C(CCCN2C(=O)c3ccccc3C2=O)C(=O)/C=C/c2ccc(O)c(OC)c2)ccc1O" , what is its reported KK (%) amount of diketo form?
**A:** 53

====

assay.notes: Spectrophotometric pH-metric titrations of Ga^3+:ligand systems (stability constants, pGa, speciation)
Type: physicochemical
settings: Ga^3+ complex species, pH 5.5
Procedure: UV–visible spectra were recorded with a JASCO V-570 UV/Vis/NIR spectrophotometer at 298 K in the 250–600 nm spectral range employing quartz cells (1 cm optical path). […] The metal/ligand (M:L) solutions were obtained by adding appropriate quantities of Ga(NO3)3 as methanol solutions (5–10 mM) in order to obtain the metal-to-ligand 1:1 molar ratio (L = 50 μM and V = 25 mL). […] The quantities are obtained by performing error propagation calculation from the experimental errors onto the parameters. […]

smi | Prevailing Species (pH 5.5)
O=C(/C=C/c1ccc(O)cc1)C(CCCN1C(=O)c2ccccc2C1=O)C(=O)/C=C/c1ccc(O)cc1 | [Ga(H2L)2]^+
COc1cc(/C=C/C(=O)C(CCC(=O)O)C(=O)/C=C/c2ccc(O)c(OC)c2)ccc1O | [Ga(H2L)2]^+
COc1cc(/C=C/C(=O)C(CCCN2C(=O)c3ccccc3C2=O)C(=O)/C=C/c2ccc(O)c(OC)c2)ccc1O | [Ga(H2L)2]^+

====

assay.notes: Spectrophotometric pH titrations of ligands (protonation constants, pKa)
Format: physicochemical
settings: aqueous solution (methanol stock diluted in water), 298 K, calculated from logβ values; * = keto–enol moiety dissociation; read-out: pKa3
Experimental: UV–visible spectra were recorded with a JASCO V-570 UV/Vis/NIR spectrophotometer at 298 K in the 250–600 nm spectral range employing quartz cells (1 cm optical path). […] The metal/ligand (M:L) solutions were obtained by adding appropriate quantities of Ga(NO3)3 as methanol solutions (5–10 mM) in order to obtain the metal-to-ligand 1:1 molar ratio (L = 50 μM and V = 25 mL). […] The quantities are obtained by performing error propagation calculation from the experimental errors onto the parameters. […]
recorded.endpoint: pKa
Answer with a number only.

Check out these entries, answers already filled in.
compound | measurement
COc1cc(/C=C/C(=O)C(CCC(=O)O)C(=O)/C=C/c2ccc(O)c(OC)c2)ccc1O [Compound 7] | 9.39
COc1cc(/C=C/C(=O)C(CCCN2C(=O)c3ccccc3C2=O)C(=O)/C=C/c2ccc(O)c(OC)c2)ccc1O [Compound 4] | 10.8
O=C(/C=C/c1ccc(O)cc1)C(CCCN1C(=O)c2ccccc2C1=O)C(=O)/C=C/c1ccc(O)cc1 [Compound 3] | 10.9

From here, focus on the item given below.
**Q:** Given the compound O=C(O)CCC(C(=O)/C=C/c1ccc(O)cc1)C(=O)/C=C/c1ccc(O)cc1 [Compound 6] , what is its reported pKa?
**A:** 9.7
